Hey, just so you know, these numbers are from patent US12502376B2.

- EXPERIMENTAL_SYSTEM: NL20 human bronchial epithelial cells expressing human Z-AAT (Homo sapiens, UniProt P01009, E366K)
- Sequence (P01009 25-418 E366K): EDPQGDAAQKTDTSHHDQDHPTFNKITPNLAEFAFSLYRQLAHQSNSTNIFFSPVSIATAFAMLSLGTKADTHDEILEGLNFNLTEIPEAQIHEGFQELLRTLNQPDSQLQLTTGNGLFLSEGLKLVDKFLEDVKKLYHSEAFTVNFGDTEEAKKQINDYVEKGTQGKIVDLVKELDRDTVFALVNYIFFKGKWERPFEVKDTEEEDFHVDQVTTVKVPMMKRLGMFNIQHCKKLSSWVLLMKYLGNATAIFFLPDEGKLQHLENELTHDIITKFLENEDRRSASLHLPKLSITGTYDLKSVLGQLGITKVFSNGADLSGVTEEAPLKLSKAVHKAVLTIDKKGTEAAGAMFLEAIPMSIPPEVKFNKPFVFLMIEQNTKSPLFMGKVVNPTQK
- METHOD_SUMMARY: AAT Function Assay (MSD Assay NL20-SI Cell Line)
- TEST_CONDITIONS: functionally active AAT in supernatant of NL20 cells expressing human Z-AAT, complex with hNE, MSD readout; read-out: NL20 Functional EC50
ENDPOINT: EC50

Each molecule below has a reported value. Please supply its EC50.
1. Cc1cc(-n2c3c(c4c(O)cccc42)[C@]2(C[C@@H](C(=O)O)C2)OCC3(C)C)ccc1F
2. Cc1cc(-n2c3c(c4c(O)cccc42)[C@]2(C[C@](C)(C(=O)O)C2)OCC3(C)C)ccc1F
3. CC1(C)CO[C@]2(CC[C@@H](C(=O)O)CC2)c2c1n(-c1ccc(F)cc1)c1cccc(O)c12
4. CC1(C)CO[C@]2(CC[C@@](C)(C(=O)O)CC2)c2c1n(-c1ccc(F)c(F)c1)c1cccc(O)c12
5. CC1(C)COC2(CC3(CC(C(=O)O)C3)C2)c2c1n(-c1ccc(F)cc1)c1cccc(O)c21 (single isomer, unassigned) [Compound 152]

Ans:
> 3000 nM
< 1200 nM
1200 to 3000 nM
< 1200 nM
> 3000 nM

###

- EXPERIMENTAL_SYSTEM: purified Z-AAT protein from human plasma (Homo sapiens, UniProt P01009, E366K/V237A)
- Construct: Purified Z-AAT protein from human plasma; Vertex Cambridge Sample 4942)
- Sequence (P01009 25-418 V237A/E366K): as the sequence (P01009 25-418 E366K) above, with V213A counted along it
- METHOD_SUMMARY: Biochemical Assay (Z-AAT Elastase Activity Assay)
- TEST_CONDITIONS: purified Z-AAT pre-incubated with compound 1 hour, then hNE and elastase substrate V
pIC50: −log10 of the molar value.
Please respond with reported pIC50 for every item in the list.

CC1(C)CO[C@]2(CC[C@](O)(CC(=O)O)CC2)c2c1n(-c1ccc(F)cc1)c1cccc(O)c12 | < 4.52
CC1(C)COC2(CCC(C(=O)O)OC2)c2c1n(-c1ccc(F)cc1)c1cccc(O)c21 (stereo not shown) [Compound 140] | < 4.52
CC1(C)CO[C@]2(C[C@](CF)(C(=O)O)C2)c2c1n(-c1ccc(F)c(F)c1)c1cccc(O)c12 | < 4.52

Consider the record given below.
Q: Write down the reported pIC50 of `CC1(C)CO[C@]2(CC[C@](C(=O)O)(C(F)F)CC2)c2c1n(-c1ccc(F)cc1)c1cccc(O)c12` , test system: purified Z-AAT protein from human plasma (Homo sapiens, UniProt P01009, E366K/V237A).
Ans: 5.52 to 5.92

###

- EXPERIMENTAL_SYSTEM: purified Z-AAT protein from human plasma (Homo sapiens, UniProt P01009, E366K/V237A)
- Construct: Purified Z-AAT protein from human plasma; Vertex Cambridge Sample 4942)
- METHOD_SUMMARY: Biochemical Assay (Z-AAT Elastase Activity Assay)
- TEST_CONDITIONS: purified Z-AAT pre-incubated with compound 1 hour, then hNE and elastase substrate V
ENDPOINT: IC50

Each compound below has a reported value. Please supply its IC50.
1. CC1(C)CO[C@]2(CC[C@H](C(=O)O)CC2)c2c1n(-c1ccc(F)c(F)c1)c1cc(F)cc(O)c12 [Compound 72]
2. CC1(C)CO[C@]2(C[C@](C(=O)O)(C(F)(F)F)C2)c2c1n(-c1ccc(F)c(F)c1)c1cc(F)cc(O)c12 [Compound 82]
3. CC1(C)OCC(C)(c2ccc(C(=O)O)cc2F)c2c1n(-c1ccc(F)cc1)c1cccc(O)c21 (stereo not shown) [Compound 194]
4. CC1(C)COC(C)(c2ccc(C(=O)O)c(F)c2)c2c1n(-c1ccc(F)cc1)c1cccc(O)c21 (single isomer, unassigned) [Compound 163]
5. CC1(C)COC(C)(c2cc(C(=O)O)cs2)c2c1n(-c1ccc(F)cc1)c1cccc(O)c21 (racemic) [Compound 102]
6. Cc1cc(-n2c3c(c4c(O)cccc42)[C@]2(CC[C@H](C(=O)O)C2)OCC3(C)C)ccc1F [Compound 13]
7. CC1(C)CO[C@]2(C[C@@H](c3ccc(C(=O)O)cc3)C2)c2c1n(-c1ccc(F)cc1)c1cccc(O)c12 [Compound 85]

Ans:
1: > 30 µM; 2: < 1.2 µM; 3: 1.2 to 3 µM; 4: > 3 µM; 5: 1.2 to 3 µM; 6: > 3 µM; 7: > 30 µM
